System: MS2 coat protein
experimental-details: apparent KD of MS2 coat protein; designed switch direction (-1 OFF switch, 1 ON switch): -1; higher = weaker reporter binding
experimental-context: Eterna round: R95; input ligand: microRNA oligo, concentration not stated
parameter-measured: apparent KD of MS2 coat protein (µM)
Answer with a number only, understood to be in µM.

1. ACAAGCUUAUUGCUCGGGUACAUGAGGAUCACCCAUGUUUGUGAUUAUAGAGAUUGUGUUGACGUGCGCUGCAGGUU [JR_SV3TOV1_Sub078] (puzzle: Sensor v3, turn-off variant 1); 0.0379

Tell me the measured apparent KD of MS2 coat protein of UAUUACCUAGGAUAUACAUGAGGAUCACCCAUGUCACGGGUCAACUUGUCCUACGCGUGUAGAAGGAGGGACCC [JL Ceriza mod 7] (puzzle: Exclusion 3) , please.
0.0197

What about this sequence? GUUAGACAUGAGGAUCACCCAUGUGAGGAUAUGAUGCGAUCGUGCUGACAUGAUCGCAUCAGAAGGCACAUAUG [Mat - Mod of JL D66] (puzzle: Exclusion 1)
0.0957

What about this sequence? UCAAGUAUGUAGGAUAUGAUGUGAUUAUACAUAUCAGAAGGACGUACAUGAGGAUCACCCAUGUAACUUGCAUG [Exclusion 6 - B - 12:c] (puzzle: Exclusion 6)
0.0591

What about this sequence? GUGUACAGAGGAUAUACACGAGUAGUUACGAAAGUAACUACACAUGAGGAUCACCCAUGUAGAAGGCUGUACAC [Dot plot directed] (puzzle: Exclusion 2)
0.0204

What about this sequence? AGAGUGUGAGGAUAUAUGGUGAAGAUGAAGGGAUAGAAGGAGUAGAAGGUACAUGAGGAUCACCCAUGUUAGGA [JR_Exclu4_Sub076] (puzzle: Exclusion 4)
0.0231

====

Tested on: MS2 coat protein
experimental-details: apparent KD of MS2 coat protein; higher = weaker reporter binding
experimental-context: Eterna round: R107; input ligand: theophylline 2 mM
parameter-measured: apparent KD of MS2 coat protein (nM)
Answer with a number only, understood to be in nM.

1. CGGACAUGAGGAUCACCCAUGUACACUGAAGGAGCGUCGAGAACGACAGGUAGGUCGCAGGCUAAGGAAGGUGAUGCUCAAGAAG [Exclusion Arginine A GF5]; 41.1
2. GUCCACAUGAGGAUCACCCAUGUAAGUGGGCGAGGACCGGUACGGCCGCCACUCGACAUGUUGACGAAAAGUCAGCAUGAGGACA [#SwitchBubble 3 #GuTurnoff #Tail]; 114
3. UACAUGAGGAUCACCCAUGUAUGAAUGGAUACCAGCGACAAUGGGCGCCCUUGGCAGCUAGUGGAUGAAGGGUGGGUACAAUACU [Exclusion Theophyline A GF4]; 13.1
4. GGACUAACCUGAAGGAGCGACACGCAGAAACUGCAAAUUCCUCCACACGAGGAUCACCCGUGUCAGGUAGGUCGCAGGUUAGUCG [ArgBX 28]; 21.6
5. ACACAUGAUAGAAGGAGCGCAAUGAACACACAUGAGGAUCACCCAUGUUUUUUUUGUGUUUUGCAGGUAGGUCGCUAACAUGAGG [Same State Arginine B 4]; 11

Tell me the measured apparent KD of MS2 coat protein of AACAUACAGUUUUAGGUGGAUAUAAGGCGGCGAGGACCGGUACGGCCGCCACUCGCGUACAUGAGGAUCACCCAUGUCUGAAGCU [Same State - Tryptophan A (Freestyle 7)] , please.
86.9

What about this sequence? UGAUCCUGCAGGGAUACCAGCGCCGCUAGAUAACUAUGCACAUGAGGAUCACCCAUGUAACGCCCUUGGCAGCCCAACUAAAGGG [Same State Theophylline B GF21]
26.7

What about this sequence? GGACUAACCUGAAGGAGCGGCACGCAGAAACUGCAAAUUCCUCCACACGAGGAUCACCCGUGUCAGGUAGGUCGCAGGUUAGUCG [ArgBX 28]
22.9

====

Test system: MS2 coat protein
experimental-details: apparent KD of MS2 coat protein; higher = weaker reporter binding
experimental-context: Eterna round: R107; input ligand: arginine 13.2 mM
Below: a set of entries, each annotated with reported apparent KD of MS2 coat protein.
Answer with a number only, understood to be in nM.

1) UUCAGUACAACAGAUACCAGACAGUACUCUAAAUUGCAACAUGAGGAUCACCCAUGUAUAGUCCCUUGGCAGCUGUAAUGGGUGA [Theo B SS s2]; 150
2) AUCAUGGCCAUCGAUACCAGCUACAUGAGGAUCACCCAUGUAAACGGCGCGGUGAGAUGUAGCCCUUGGCAGCGAAGGGUCAAGG [Beonrexe]; 16.4

Let us examine a further case.
Tell me the measured apparent KD of MS2 coat protein of UUGGUACAUGAGGAUCACCCAUGUACUGAAGGAGCGGGACGAAUCUCAGGUAGGUCGCAGACAUGAGGAUCACCCAUGUAUUGGU [Exclusion Arginine A GF 16] , please.
18.9

====

Below: a set of entries, each annotated with reported apparent KD of MS2 coat protein.
Test system: MS2 coat protein
experimental-details: apparent KD of MS2 coat protein; higher = weaker reporter binding
experimental-context: Eterna round: R107; input ligand: tryptophan 2.4 mM
# include the unit after the value

Guide cases for apparent KD of MS2 coat protein, answers given:
1) GCCUAGCAGCGAAGGAGCGACAUCGGCGCAUGCGAGGACAUGAGGAUCACCCAUGUACCAUGUCAGGUAGGUCGCGCUGCUAGGC [EAB NP+V+V2 #6]; 24.5 nM
2) GUACAUGAGGAUCACCCAUGUAUAGUUGAAGGAGCGACCAGAGGGUCAGGUAGGUCGCAGCACAUGGUGAAAACCCGUGUAUGCC [#1 Exclusion - Arginine A Attempt #21 (Inspired by Pi)]; 27.6 nM
3) CUCCCUUCGGCGGCCGCCACUAACAGUUUAAUGGACUUUCGGGUCCACAUGAGGAUCACCCAUGUUAGGACCGGGCCCUUGCUCU [theeternabot_exclusion_MS2_Trp_B_39]; 10.9 nM
4) GCGUUCUCUGCGGCCGCCACUCAAGGAGCUACAUAGCUCCUAGACAUGAGGAUCACCCAUGUCGCGAGGACCGGGUAGAUCCUUA [Same State Typptophan B GF8]; 120 nM

Tell me the measured apparent KD of MS2 coat protein of AGAGCAUUGACGGCCGCCACUCAUGUCACAUGAGGAUCACCCAUGUGAUGGGUAAUUGCCCGGUUGAGGACCGGGUCAAUGCUCA [Omei Tryp SS B v4] , please.
9.74 nM

What about this sequence? CAUAUAUAUUGAAGGAGCGACAUGAGGAUCACCCAUGUCUACCACGUCGAAAGACGCUCAUGUCAGGUAGGUCGCAAUAUAUAUG [Astros-Eli-mod5]
106 nM

What about this sequence? ACACACAUGAGGAUCACCCAUGUAAUAGAUACCAGUGACGCGGUGCACCCUUGGCAGCUGCUGCUGAGUGAUGGUUCCCUCGGAA [Exclusion Theophylline A GF7]
19.2 nM

What about this sequence? CAAUAAGUAACUGAUACCAGUGUACUGACAUGAGGAUCACCCAUGUUGGGUUUUGUUGUACACCCUUGGCAGCAGAAUCUUAUUG [AstrosExyTheB#12]
55.4 nM

====

Below: a set of entries, each annotated with reported apparent KD of K4 kissing-loop reporter.
Tested on: K4 kissing-loop RNA reporter;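 further: bound reporter read as fluorescence of individual clusters on recovered sequencing chips by microscopy, with normalized cluster intensities fitted with a binding model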
experimental-details: apparent KD of K4 kissing-loop reporter; higher = weaker reporter binding
experimental-context: Eterna round: R107; input ligand: tryptophan 2.4 mM

Guide cases for apparent KD of K4 kissing-loop reporter, answers given:
1. CUAUGGAAACAUAGGAAUCGGGAAACCGAUACCAGUAUGGAAACAUACCCUUGGCAGCGGAAUGAUUCAACGGAGUGAUGUUCCG [Theophylline A K4 20]; 321 nM
2. GGGAGUAGUGCGGCCGCCACUGAGAAAGAAGAAGAAUAUAGUGAUGUUAUAUAGGAAGGGAAGAACAGGACCGGGCAUUAGAUUU [SSTRyptB.Y]; 222 nM
3. UGGAGUUGACGAAAAGUCAACUCCUGGGAAGGAGCGGACGAAAGUCCAGGUAGGUCGCUCACUACCAGUGAUGUUGGUACUAAAA; 215 nM

Let us examine a further case.
Tell me the measured apparent KD of K4 kissing-loop reporter of ACGCUAGCUACCGAAAGGUAGCUAGCGAGUGAGGAUAUGUGGAAACACAGAAGGCACAGCGCAGUGAUGUUGUGCGGCGAAAGCC [whbob_SS_FMNA__2th166] , please.
803 nM

====

Tested on: MS2 coat protein
experimental-details: apparent KD of MS2 coat protein; designed switch direction (-1 OFF switch, 1 ON switch): -1; higher = weaker reporter binding
experimental-context: input ligand: none
Below: a set of entries, each annotated with reported apparent KD of MS2 coat protein.
Answer with a number only, understood to be in µM.

1. AUCCUCUAGAAGGAUAUGCAGGUUGAAUAAACCGCAGAAGGUUUUACAUGAGGAUCACCCAUGUGUAUAACACA [Eternabot (L2) Solution 100] (Eterna round: R97, puzzle: Exclusion 6); 0.165
2. AGCGAGGCAGGAUAUACAUGAGGAUCACCCAUGUGCUUGCAUGGCGUGGGACGUCGAGGUAGAAGGGCCAUGCC [EX3 #70] (Eterna round: R97, puzzle: Exclusion 3); 0.0521
3. AGCUGUGGCCGAGGAUAUCUAAUAUCCCUAACCGAAAUAUAAUCGGACAUGAGGAUCACCCAUGUAGAGAAGGCGGUCUCAGCA [Eli eng2 - 065] (Eterna round: R96, puzzle: Exclusion NG 2); 0.0208
4. CAGUACUGAGGAUAUACAUGAGGAUCACCCAUGUGUUCCGGCUAGGAUACUAGCAAAGGUAGAAGGCAGUACUG [Mat - Exclusion 3 - Eli Mod - D22] (Eterna round: R97, puzzle: Exclusion 3); 0.0354
5. UUUACCAGAGGAUAUGCGAAUAAAUAAAACUUUUUUUUUUAACAUGAGGAUCACCCAUGUAGAAGGCUGCAUUU [Ex2 #29] (Eterna round: R97, puzzle: Exclusion 2); 0.0282

Tell me the measured apparent KD of MS2 coat protein of GUAAAUCAUGUAGGAUAUGCGUGGCGAAGCUAUGCAGAAGGACAUGAGGAUCACCCAUGUGCUUGCGUCCGCGUACGGAUGCAA [Mat - Exclusion NG 1 - Mod of JL - D70] (Eterna round: R96, puzzle: Exclusion NG 1) , please.
0.237

Taken from the supplement of paper PMC9170038.
